Some binders, each annotated with its measured pKd.
- measurement_target: T1, human CD19 antigen (human, UniProt P15391 20-291, limits assumed)
- T1 sequence (looked up): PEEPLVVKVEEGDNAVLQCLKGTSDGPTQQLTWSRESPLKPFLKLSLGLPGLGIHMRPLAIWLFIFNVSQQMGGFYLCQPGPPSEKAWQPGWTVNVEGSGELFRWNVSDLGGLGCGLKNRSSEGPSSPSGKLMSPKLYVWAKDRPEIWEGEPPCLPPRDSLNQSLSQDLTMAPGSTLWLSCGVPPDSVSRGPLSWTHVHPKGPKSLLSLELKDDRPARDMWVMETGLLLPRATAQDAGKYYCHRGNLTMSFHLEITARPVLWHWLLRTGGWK
- test_protocol: SPR (Biacore), antibody captured via Fc
pKd: −log10 of the molar value.

binder: humanized CD19 antibody VH1 + VL3 (antibody, V domains shown, also called Antibody No. 3) VH: QVQLQESGPGLVKPSQTLSLTCTVSGVSLPDYGVSWIRQPPGKGLEWIGVIWGSETTYYNSALKSRVTISVDTSKNQFSLKLSSVTAADTAVYYCARHYYYGGSYAMDYWGQGTTVTVSS VL: DIQMTQSPSSLSASVGDRVTITCRASQDISKYLNWYQQKPGKAPKLLIYHTSRLHSGVPSRFSGSGSGTDYTLTISSLQPEDIATYYCQQGNTLPYTFGGGTKLEIK
pKd: 7.39
--
binder: humanized CD19 antibody VH3 + VL3 (antibody, V domains shown, also called Antibody No. 9) VH: QVQLQESGPGLVKPSQTLSLTCTVSGVSLPDYGVSWIRQPPGKGLEWIGVIWGSETTYYNSALKSRLTISKDTSKNQVSLKLSSVTAADTAVYYCAKHYYYGGSYAMDYWGQGTTVTVSS VL: DIQMTQSPSSLSASVGDRVTITCRASQDISKYLNWYQQKPGKAPKLLIYHTSRLHSGVPSRFSGSGSGTDYTLTISSLQPEDIATYYCQQGNTLPYTFGGGTKLEIK
pKd: 7.80
--
binder: humanized CD19 antibody VH1 + VL2 (antibody, V domains shown, also called Antibody No. 2) VH: QVQLQESGPGLVKPSQTLSLTCTVSGVSLPDYGVSWIRQPPGKGLEWIGVIWGSETTYYNSALKSRVTISVDTSKNQFSLKLSSVTAADTAVYYCARHYYYGGSYAMDYWGQGTTVTVSS VL: DIQMTQSPSSLSASVGDRVTITCRASQDISKYLNWYQQKPGKAPKLLIYHTSRLHSGVPSRFSGSGSGTDYTFTISSLQPEDIATYYCQQGNTLPYTFGGGTKLEIK
pKd: 8.10
--
binder: humanized CD19 antibody VH4 + VL3 (antibody, V domains shown, also called Antibody No. 12) VH: QVQLQESGPGLVKPSQTLSLTCTVSGVSLPDYGVSWIRQPPGKGLEWLGVIWGSETTYYNSALKSRLTISKDTSKNQVSLKLSSVTAADTAVYYCAKHYYYGGSYAMDYWGQGTTVTVSS VL: DIQMTQSPSSLSASVGDRVTITCRASQDISKYLNWYQQKPGKAPKLLIYHTSRLHSGVPSRFSGSGSGTDYTLTISSLQPEDIATYYCQQGNTLPYTFGGGTKLEIK
pKd: 7.25
--
binder: humanized CD19 antibody VH2 + VL3 (antibody, V domains shown, also called Antibody No. 6) VH: QVQLQESGPGLVKPSQTLSLTCTVSGVSLPDYGVSWIRQPPGKGLEWIGVIWGSETTYYNSALKSRVTISKDTSKNQVSLKLSSVTAADTAVYYCAKHYYYGGSYAMDYWGQGTTVTVSS VL: DIQMTQSPSSLSASVGDRVTITCRASQDISKYLNWYQQKPGKAPKLLIYHTSRLHSGVPSRFSGSGSGTDYTLTISSLQPEDIATYYCQQGNTLPYTFGGGTKLEIK
pKd: 7.35
